- TEST_TARGET: Cyclin Dependent Kinase 2/Cyclin E1 (CDK2-cycE1) (Homo sapiens)
- Construct: purchased ProQinase 0050-0055-1
- PROTOCOL_SUMMARY: CDK2-cycE1 TR-FRET (LANCE) enzyme assay
- Format: biochemical
- SETUP_CONDITIONS: Table O, fold selectivity, enzymatic CDK1 Ki over CDK2 Ki
So I've got a bunch of compounds here, and I need their FS CDK1/CDK2 values.
Form field (numeric): enter value without unit.

Incoming: Entry `CC1(NC(=O)O[C@@H]2CC[C@H](c3cc(Nc4cccnn4)n[nH]3)C2)CC1` needs its FS CDK1/CDK2 filled in; supply it.
Outgoing: 29

Incoming: Entry `COc1cncc(Nc2cc([C@H]3CC[C@@H](OC(=O)NC(C)C)C3)[nH]n2)n1` needs its FS CDK1/CDK2 filled in; supply it.
Outgoing: 7.6

Incoming: Entry `Cc1ncccc1Nc1cc([C@H]2CC[C@@H](OC(=O)NC3(C)COC3)C2)[nH]n1` needs its FS CDK1/CDK2 filled in; supply it.
Outgoing: 52

Incoming: Entry `Cc1nccnc1Nc1cc([C@H]2CC[C@@H](OC(=O)NC(C)C)C2)[nH]n1` needs its FS CDK1/CDK2 filled in; supply it.
Outgoing: 74
